# System Name: BTK (Homo sapiens (Human), UniProt Q06187)
# Sequence (Q06187 whole entry, looked up, species assumed): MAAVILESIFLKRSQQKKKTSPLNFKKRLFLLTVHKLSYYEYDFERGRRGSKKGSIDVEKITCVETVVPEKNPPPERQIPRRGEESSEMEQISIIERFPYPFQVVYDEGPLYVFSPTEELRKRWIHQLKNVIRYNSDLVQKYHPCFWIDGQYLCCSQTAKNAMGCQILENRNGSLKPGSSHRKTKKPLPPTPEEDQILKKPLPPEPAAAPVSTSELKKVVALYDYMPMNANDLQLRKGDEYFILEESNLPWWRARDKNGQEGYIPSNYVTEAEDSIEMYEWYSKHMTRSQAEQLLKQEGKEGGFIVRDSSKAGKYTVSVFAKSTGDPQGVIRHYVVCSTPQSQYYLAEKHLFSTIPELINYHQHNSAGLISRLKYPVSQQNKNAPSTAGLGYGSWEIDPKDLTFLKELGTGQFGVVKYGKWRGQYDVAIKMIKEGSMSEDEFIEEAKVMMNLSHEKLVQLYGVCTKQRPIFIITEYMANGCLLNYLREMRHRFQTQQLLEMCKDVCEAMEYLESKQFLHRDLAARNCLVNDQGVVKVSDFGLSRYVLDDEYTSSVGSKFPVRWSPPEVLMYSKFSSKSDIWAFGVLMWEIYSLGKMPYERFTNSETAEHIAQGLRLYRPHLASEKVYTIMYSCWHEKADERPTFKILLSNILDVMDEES
# Test Summary: biochemical
Measurement Type: IC50

- Molecule: "CC#CC(=O)N1CCC[C@H]1c1nc(-c2ccc(Oc3cccc(OC)c3F)cc2)c2c(O)nccn12 [Example 35]"
  IC50: "1000 to 10000 nM"

QUERY: Which measured IC50 value corresponds to C=CC(=O)N1CCC[C@H]1c1nc(-c2ccc(COc3cccc(F)c3)cc2)c2cnccn12 [Example 145] ?
RESULT: 10 to 100 nM

QUERY: Which measured IC50 value corresponds to CC#CC(=O)N1CCCC[C@H]1c1nc(-c2ccc(COc3cccc(F)c3F)cc2)c2cnccn12 [Example 159] ?
RESULT: 1000 to 10000 nM

---

# pIC50 values compiled below
# System Name: BTK (Homo sapiens (Human), UniProt Q06187)
# Test Summary: biochemical
pIC50: −log10 of the molar value.

// known answers, use as guide
- Compound: "CC#CC(=O)N1CC[C@@H](c2nc(-c3ccc(Oc4cccc(OC)c4F)cc3)c3cncc(OCCOC)n23)C1"
  System Name: "BTK (Homo sapiens (Human), UniProt Q06187)"
  pIC50: "7.00 to 8.00"
- Compound: "CC#CC(=O)N1CCC[C@H]1c1nc(-c2ccc(COc3cccc(F)c3F)cc2)c2cnccn12"
  System Name: "BTK (Homo sapiens (Human), UniProt Q06187)"
  pIC50: "5.00 to 6.00"
- Compound: "CC#CC(=O)N1CCC[C@H]1c1nc(-c2ccc(OCc3c(F)cccc3F)cc2)c2cnccn12"
  System Name: "BTK (Homo sapiens (Human), UniProt Q06187)"
  pIC50: "5.00 to 6.00"
- Compound: "CC#CC(=O)N1CC[C@@H](c2nc(-c3ccc(Oc4cccc(OC)c4F)cc3)c3c(CCC)nccn23)C1"
  System Name: "BTK (Homo sapiens (Human), UniProt Q06187)"
  pIC50: "5.00 to 6.00"
- Compound: "CC#CC(=O)N1CC[C@@H](c2nc(-c3ccc(Oc4cccc(OC)c4F)cc3)c3c(COC(C)=O)nccn23)C1"
  System Name: "BTK (Homo sapiens (Human), UniProt Q06187)"
  pIC50: "6.00 to 7.00"

Consider the record given below.
QUERY: Which measured pIC50 value corresponds to "C=CC(=O)N1CCCC[C@H]1c1nc(-c2ccc(C(=O)Nc3ccccn3)cc2)c2c(C)ncc(C)n12" ?
RESULT: 7.00 to 8.00

---

# System Name: BTK (Homo sapiens (Human))
# Measurement Context: read-out: BTK Inhibition
pIC50: −log10 of the molar value.
Measurement Type: pIC50

// known answers, use as guide
- Molecule: "C=CC(=O)N1CCCC[C@H]1c1nc(-c2ccc(Oc3cccc(C)c3)cc2)c2c(C)nccn12"
  System Name: "BTK (Homo sapiens (Human))"
  Result: "> 8.00"
- Molecule: "C=CC(=O)N1CC[C@@H](c2nc(-c3ccc(Oc4cccc(OC)c4F)cc3)c3c(CC)nccn23)C1"
  System Name: "BTK (Homo sapiens (Human))"
  Result: "> 8.00"
- Molecule: "CC#CC(=O)N1CCCC[C@H]1c1nc(-c2ccc(C(=O)Nc3ccccn3)cc2)c2c(C(F)(F)F)nccn12"
  System Name: "BTK (Homo sapiens (Human))"
  Result: "< 5.00"
- Molecule: "C=CC(=O)N1CCC[C@H]1c1nc(-c2ccc(C(=O)Nc3ccccn3)cc2)c2c(C3CC3)nccn12"
  System Name: "BTK (Homo sapiens (Human))"
  Result: "< 5.00"
- Molecule: "C=CC(=O)N1CC[C@@H](c2nc(-c3ccc(Oc4cccc(OC)c4F)cc3)c3cncc(OCCC)n23)C1"
  System Name: "BTK (Homo sapiens (Human))"
  Result: "> 8.00"
- Molecule: "CC#CC(=O)N1CC[C@@H](c2nc(-c3ccc(Oc4cccc(OC)c4F)cc3)c3cncc(OCC)n23)C1"
  System Name: "BTK (Homo sapiens (Human))"
  Result: "> 8.00"
- Molecule: "CC#CC(=O)N1CC[C@@H](c2nc(-c3ccc(Oc4cccc(OC)c4F)cc3)c3cncc(OCCCC)n23)C1"
  System Name: "BTK (Homo sapiens (Human))"
  Result: "> 8.00"
- Molecule: "CC#CC(=O)N1CCCC[C@H]1c1nc(-c2ccc(C(=O)Nc3cc(C(F)(F)F)ccn3)cc2)c2c(C(F)(F)F)nccn12"
  System Name: "BTK (Homo sapiens (Human))"
  Result: "< 5.00"
- Molecule: "CC#CC(=O)N1CCC[C@H]1c1nc(-c2ccc(Oc3cccc(OC)c3F)cc2)c2c(C(N)=O)nccn12"
  System Name: "BTK (Homo sapiens (Human))"
  Result: "< 5.00"
- Molecule: "C=CC(=O)N1CC[C@@H](c2nc(-c3ccc(Oc4cccc(OC)c4F)cc3)c3cncc(OCCN(C)C)n23)C1"
  System Name: "BTK (Homo sapiens (Human))"
  Result: "> 8.00"

QUERY: Which measured pIC50 value corresponds to "C=CC(=O)N1CCC[C@H]1c1nc(-c2ccc(Oc3cccc(OC)c3F)cc2)c2cncc(C)n12" ?
RESULT: > 8.00

QUERY: Which measured pIC50 value corresponds to "C=CC(=O)N1CCC[C@H]1c1nc(-c2ccc(Oc3cccc(OC)c3F)cc2)c2c(C)nccn12" ?
RESULT: > 8.00

QUERY: Which measured pIC50 value corresponds to "C=CC(=O)N1CC[C@@H](c2nc(-c3ccc(C(=O)Nc4ccccn4)cc3)c3cncc(OCC)n23)C1" ?
RESULT: > 8.00

QUERY: Which measured pIC50 value corresponds to "C=CC(=O)N1CCCC[C@H]1c1nc(-c2ccc(C(=O)Nc3ccccn3)cc2)c2c(C)nccn12" ?
RESULT: > 8.00

QUERY: Which measured pIC50 value corresponds to "C=CC(=O)N1CC[C@@H](c2nc(-c3ccc(Oc4cccc(OC)c4F)cc3)c3cncc(OCCOC)n23)C1" ?
RESULT: > 8.00

---

# IC50 values compiled below
# System Name: BTK (Homo sapiens (Human), UniProt Q06187)
# Test Summary: biochemical

// known answers, use as guide
- Molecule: "C=CC(=O)N1CCCC[C@H]1c1nc(-c2ccc(Oc3cccc(F)c3)cc2)c2cnccn12"
  System Name: "BTK (Homo sapiens (Human), UniProt Q06187)"
  IC50: "10 to 100 nM"
- Molecule: "C=CC(=O)N1CC[C@@H](c2nc(-c3ccc(Oc4cccc(OC)c4F)cc3)c3c(CCC)nccn23)C1"
  System Name: "BTK (Homo sapiens (Human), UniProt Q06187)"
  IC50: "100 to 1000 nM"
- Molecule: "CC#CC(=O)N1CCC[C@@H](c2nc(-c3ccc(C(=O)Nc4ccccn4)cc3)c3cnccn23)C1"
  System Name: "BTK (Homo sapiens (Human), UniProt Q06187)"
  IC50: "1000 to 10000 nM"
- Molecule: "C=CC(=O)N1CCCC[C@H]1c1nc(-c2ccc(Oc3cccc(OC)c3F)cc2)c2c(C)ncc(C)n12"
  System Name: "BTK (Homo sapiens (Human), UniProt Q06187)"
  IC50: "10 to 100 nM"
- Molecule: "CC#CC(=O)N1CC[C@@H](c2nc(-c3ccc(C(=O)Nc4ccccn4)cc3)c3cncc(OCC)n23)C1"
  System Name: "BTK (Homo sapiens (Human), UniProt Q06187)"
  IC50: "100 to 1000 nM"
- Molecule: "CC#CC(=O)N1CC[C@@H](c2nc(-c3ccc(C(=O)Nc4ccccn4)cc3)c3c(C)ncc(OCC)n23)C1"
  System Name: "BTK (Homo sapiens (Human), UniProt Q06187)"
  IC50: "10 to 100 nM"
- Molecule: "C=CC(=O)N1CCC[C@H]1c1nc(-c2ccc(C(=O)Nc3cccc(OC)c3F)cc2)c2cnccn12"
  System Name: "BTK (Homo sapiens (Human), UniProt Q06187)"
  IC50: "100 to 1000 nM"
- Molecule: "CC#CC(=O)N1CCC[C@H]1c1nc(-c2ccc(C(=O)Nc3cc(C(F)(F)F)ccn3)cc2F)c2c(CO)nccn12"
  System Name: "BTK (Homo sapiens (Human), UniProt Q06187)"
  IC50: "100 to 1000 nM"

QUERY: Which measured IC50 value corresponds to "C=CC(=O)N1CCCC[C@H]1c1nc(-c2ccc(C(=O)Nc3cc(C(F)(F)F)ccn3)cc2)c2c(C(F)(F)F)nccn12" ?
RESULT: 1000 to 10000 nM

QUERY: Which measured IC50 value corresponds to "CC#CC(=O)N1CCCC[C@H]1c1nc(-c2ccc(OCc3cccc(F)c3F)cc2)c2c(C)nccn12" ?
RESULT: 100 to 1000 nM

---

# System Name: BTK (Homo sapiens (Human))
# Test Summary: biochemical
pIC50: −log10 of the molar value.
Measurement Type: pIC50

- Molecule: "CC#CC(=O)N1CCCC[C@H]1c1nc(-c2ccc(Oc3cccc(C)c3)cc2)c2c(C)nccn12 [Example 41]"
  pIC50: "7.00 to 8.00"
- Molecule: "CC#CC(=O)N1CCC[C@H]1c1nc(-c2ccc(COc3cccc(F)c3)cc2)c2cnccn12 [Example 147]"
  pIC50: "5.00 to 6.00"
- Molecule: "CC#CC(=O)N1CCC[C@H]1c1nc(-c2ccc(C(=O)Nc3cccc(OC)c3F)cc2)c2cnccn12 [Example 164]"
  pIC50: "5.00 to 6.00"
- Molecule: "CC#CC(=O)N1CCC[C@H]1c1nc(-c2ccc(Oc3cccc(F)c3)cc2)c2cnccn12 [Example 7]"
  pIC50: "7.00 to 8.00"
- Molecule: "COc1cccc(Oc2ccc(-c3nc([C@@H]4CCCN4C(=O)/C(C#N)=C/C(C)(C)C)n4ccncc34)cc2)c1F [Example 31]"
  pIC50: "6.00 to 7.00"
- Molecule: "CC#CC(=O)N1CCC[C@H]1c1nc(-c2ccc(C(=O)Nc3ccccn3)cc2)c2cnccn12 [Example 166]"
  pIC50: "5.00 to 6.00"

QUERY: Which measured pIC50 value corresponds to CC#CC(=O)N1CCC[C@H]1c1nc(-c2ccc(COc3cccc(OC)c3F)cc2)c2cnccn12 [Example 160] ?
RESULT: 5.00 to 6.00

QUERY: Which measured pIC50 value corresponds to CC#CC(=O)N1CCCC[C@H]1c1nc(-c2ccc(Oc3cccc(OC)c3F)cc2)c2cnccn12 [Example 25] ?
RESULT: 7.00 to 8.00
